List of binding signal values.
Molecular target: GST-Rok-C97-191 (Bacillus subtilis subsp. subtilis str. …, UniProt O34857 97-191)
Sequence: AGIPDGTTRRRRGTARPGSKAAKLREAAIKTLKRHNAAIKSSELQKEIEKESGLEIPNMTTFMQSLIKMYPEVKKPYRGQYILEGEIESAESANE
Assay: protein binding microarray; high values mean tight binding
Conditions: protein: recombinant; tags: GST (pTH5325, pDEST15-Magic modified); dsDNA, one strand shown
Over roughly 33,000 sequences, “e-score” has its median near -0.038; the highest 2% begin near 0.33. Only a selection was taken, and the highest values are over-represented in it overall.
outcome measure: binding signal (E-score)

[[record]]
sequence_code = "CATATATC"
recorded_value = 0.279

[[record]]
sequence_code = "CATATAGA"
recorded_value = 0.144

[[record]]
sequence_code = "CCTATAAG"
recorded_value = 0.0895

[[record]]
sequence_code = "CGCTACTA"
recorded_value = 0.326


====

Target: GST-Rok-C97-191 (Bacillus subtilis subsp. subtilis str. …, UniProt O34857 97-191)
Sequence: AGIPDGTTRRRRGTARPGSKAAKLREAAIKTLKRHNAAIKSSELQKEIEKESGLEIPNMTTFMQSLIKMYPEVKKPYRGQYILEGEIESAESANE
Test: protein binding microarray; high values mean tight binding
Conditions: protein: recombinant; tags: GST (pTH5325, pDEST15-Magic modified); dsDNA, one strand shown
The full ranking holds about 33,000 sequences; the median of “e-score” is about -0.038, and the highest 2% start at about 0.33. The sample holds the highest values, similar sequences and a random draw of the others, so the mix is not that of the screen.
Binning rule for recorded binding signal: LOW (below 0.01 E-score), MID (0.01 E-score to below 0.2 E-score), HIGH (0.2 E-score or more)

[[record]]
sequence_code = "CCTAGATA"
category_label = "MID"

[[record]]
sequence_code = "ATTAGATC"
category_label = "MID"

[[record]]
sequence_code = "CAGTATTA"
category_label = "MID"

[[record]]
sequence_code = "GACTACAC"
category_label = "LOW"

[[record]]
sequence_code = "GCATGTAC"
category_label = "MID"

[[record]]
sequence_code = "AACTAAGA"
category_label = "HIGH"

[[record]]
sequence_code = "GACTACAA"
category_label = "LOW"

[[record]]
sequence_code = "CGTTGTCA"
category_label = "MID"

[[record]]
sequence_code = "ATCTATCA"
category_label = "HIGH"

[[record]]
sequence_code = "AGGTTGCG"
category_label = "LOW"

[[record]]
sequence_code = "CTCTATCA"
category_label = "MID"


====

Biological target: GST-Rok-C97-191 (Bacillus subtilis subsp. subtilis str. …, UniProt O34857 97-191)
Sequence: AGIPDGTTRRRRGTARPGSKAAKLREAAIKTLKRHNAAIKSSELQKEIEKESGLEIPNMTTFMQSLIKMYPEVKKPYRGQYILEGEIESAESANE
Test: protein binding microarray; high values mean tight binding
Details: protein: recombinant; tags: GST (pTH5325, pDEST15-Magic modified); dsDNA, one strand shown
The full ranking holds about 33,000 sequences; the median of “e-score” is about -0.038, and the highest 2% start at about 0.33. This is one part of a sample in which the highest values are shown more often than they occur.
outcome measure: binding signal

[[record]]
sequence_code = "GACTAGAA"
recorded_value = "0.206 E-score"

[[record]]
sequence_code = "AAGCTACT"
recorded_value = "0.195 E-score"

[[record]]
sequence_code = "CAATCTAG"
recorded_value = "0.206 E-score"


====

List of binding signal values.
Molecular target: GST-Rok-C97-191 (Bacillus subtilis subsp. subtilis str. …, UniProt O34857 97-191)
Sequence: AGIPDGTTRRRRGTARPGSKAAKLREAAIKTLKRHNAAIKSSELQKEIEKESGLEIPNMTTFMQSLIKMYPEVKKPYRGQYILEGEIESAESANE
Experiment: protein binding microarray; high values mean tight binding
Conditions: protein: recombinant; tags: GST (pTH5325, pDEST15-Magic modified); dsDNA, one strand shown
In all, about 33,000 sequences were measured (“e-score”: median about -0.038, highest 2% from about 0.33 on). What follows is part of a selection rich in the highest values, with near analogues and random picks from the rest.
outcome measure: binding signal (E-score)

[[record]]
sequence_code = "CGTGGTAG"
system_under_test = "GST-Rok-C97-191 (Bacillus subtilis subsp. subtilis str. …, UniProt O34857 97-191)"
unit_descriptor = "E-score"
recorded_value = 0.206

[[record]]
sequence_code = "CACAACTA"
system_under_test = "GST-Rok-C97-191 (Bacillus subtilis subsp. subtilis str. …, UniProt O34857 97-191)"
unit_descriptor = "E-score"
recorded_value = 0.199

[[record]]
sequence_code = "AGTGGTAC"
system_under_test = "GST-Rok-C97-191 (Bacillus subtilis subsp. subtilis str. …, UniProt O34857 97-191)"
unit_descriptor = "E-score"
recorded_value = 0.202


====

Target: GST-Rok-C97-191 (Bacillus subtilis subsp. subtilis str. …, UniProt O34857 97-191)
Sequence: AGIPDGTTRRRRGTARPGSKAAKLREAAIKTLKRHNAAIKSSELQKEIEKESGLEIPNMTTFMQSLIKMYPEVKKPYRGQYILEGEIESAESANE
Assay: protein binding microarray; high values mean tight binding
Settings: protein: recombinant; tags: GST (pTH5325, pDEST15-Magic modified); dsDNA, one strand shown
Whole data set: some 33,000 sequences, median “e-score” near -0.038, cut for the highest 2% near 0.33. The sample holds the highest values, similar sequences and a random draw of the others, so the mix is not that of the screen.
List of binding signal values.
outcome measure: binding signal (E-score)

[[record]]
sequence_code = "AAATATTA"
recorded_value = 0.355

[[record]]
sequence_code = "CAATATTC"
recorded_value = 0.186

[[record]]
sequence_code = "CATTCTAA"
recorded_value = 0.12

[[record]]
sequence_code = "CATTCTAG"
recorded_value = 0.202

[[record]]
sequence_code = "ATTTAGTA"
recorded_value = 0.4

[[record]]
sequence_code = "AGAGTTTC"
recorded_value = -0.0267

[[record]]
sequence_code = "ATATATTG"
recorded_value = 0.419

[[record]]
sequence_code = "AATCTAGG"
recorded_value = 0.171

[[record]]
sequence_code = "GATTCTGC"
recorded_value = 0.0425

[[record]]
sequence_code = "GTTTAGTA"
recorded_value = 0.31

[[record]]
sequence_code = "AGTTCTAA"
recorded_value = 0.142

[[record]]
sequence_code = "CTTTCTCA"
recorded_value = -0.12

[[record]]
sequence_code = "GAACGTTC"
recorded_value = 0.053

[[record]]
sequence_code = "GTAGATTA"
recorded_value = 0.344

[[record]]
sequence_code = "AAATATTC"
recorded_value = 0.219

[[record]]
sequence_code = "AATTCTAT"
recorded_value = 0.286

[[record]]
sequence_code = "CATGGAAA"
recorded_value = 0.0212

[[record]]
sequence_code = "TATATTAA"
recorded_value = 0.387

[[record]]
sequence_code = "AAATATTG"
recorded_value = 0.286


====

Molecular target: GST-Rok-C97-191 (Bacillus subtilis subsp. subtilis str. …, UniProt O34857 97-191)
Sequence: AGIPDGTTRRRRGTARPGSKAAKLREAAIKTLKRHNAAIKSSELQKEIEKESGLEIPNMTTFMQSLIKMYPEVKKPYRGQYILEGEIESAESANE
Assay: protein binding microarray; Rok is a gene silencer of Bacillus subtilis; high values mean tight binding
Details: protein: recombinant; tags: GST (pTH5325, pDEST15-Magic modified); dsDNA, one strand shown
Over roughly 33,000 sequences, “e-score” has its median near -0.038; the highest 2% begin near 0.33. The full list was thinned out, with the highest values kept by preference.
binding signal strictly under 0.2 E-score means yes; at 0.2 E-score or over means no.

[[record]]
sequence_code = "CAAAACTC"
category_label = "yes"

[[record]]
sequence_code = "CAAAACAA"
category_label = "yes"

[[record]]
sequence_code = "CAAAACTA"
category_label = "no"

[[record]]
sequence_code = "ACAACTAT"
category_label = "no"

[[record]]
sequence_code = "ACAAACTA"
category_label = "no"

[[record]]
sequence_code = "GTTCTACA"
category_label = "no"

[[record]]
sequence_code = "ATTCTATA"
category_label = "no"

[[record]]
sequence_code = "AATATACG"
category_label = "no"

[[record]]
sequence_code = "TGAAGTAA"
category_label = "yes"

[[record]]
sequence_code = "GAATAGCC"
category_label = "yes"

[[record]]
sequence_code = "ATTCTACG"
category_label = "yes"

[[record]]
sequence_code = "GCAACTAC"
category_label = "no"

[[record]]
sequence_code = "AAAAACTC"
category_label = "yes"

[[record]]
sequence_code = "CCGTTGGA"
category_label = "yes"

[[record]]
sequence_code = "ACTATACT"
category_label = "yes"

[[record]]
sequence_code = "CAAACTTA"
category_label = "yes"

[[record]]
sequence_code = "GGTATACA"
category_label = "yes"

[[record]]
sequence_code = "TAAACTAA"
category_label = "no"

[[record]]
sequence_code = "CAAACTAG"
category_label = "no"

[[record]]
sequence_code = "ATTCTAGC"
category_label = "no"

[[record]]
sequence_code = "AGTATACA"
category_label = "yes"

[[record]]
sequence_code = "CGATACAC"
category_label = "yes"

[[record]]
sequence_code = "ATTCTATC"
category_label = "no"

[[record]]
sequence_code = "GAACCGAA"
category_label = "yes"

[[record]]
sequence_code = "ATTCTACC"
category_label = "no"

[[record]]
sequence_code = "ACAACTAC"
category_label = "no"

